All figures here come from PubChem BioAssay (NCI).

Test system: OVCAR-8 ovarian
MEASUREMENT_PROTOCOL: NCI-60 one-dose screen, 48 h
PROTOCOL_CONDITIONS: 10 µM unless noted
Compounds without any hit were thinned out: in the full panel of roughly 83,000, 20% have a hit. Activity calls are given as the source filed them. How the source made its calls: active means growth percent below 10; inactive means the rest.
Could you please pick one outcome from this set? active, inactive

Q: GET /call?item= CC(C)Cc1ccc(C(C)C(=O)NCc2ccc(Cn3c(=O)sn(-c4ccc(Cl)cc4)c3=O)cc2)cc1 (stereo not given) returns the recorded outcome of this test.
A: inactive

Q: Again, but for Clc1ccc(N2N=C(c3cccc(Nc4ccncc4)c3)CC2c2ccc3c(c2)OCO3)cc1 (stereo not given)
A: inactive

Q: Again, but for O=c1[nH]c(=O)[nH]c(=S)[nH]1
A: inactive

Q: Again, but for O=C(Nc1cccc(C2=NCCN2)c1)c1ccc(OCCCOc2ccc(C(=O)Nc3cccc(C4=NCCN4)c3)cc2)cc1
A: inactive

Q: Again, but for O=C1Nc2c(ccc(Cl)c2Cl)/C1=C/c1ccccn1
A: inactive

Q: Again, but for COC(=O)Nc1nc2ccc(C(=O)c3cccc(I)c3)cc2[nH]1
A: active

Q: Again, but for COc1ccc(/C(=C\c2ccccc2)C(=O)O)cc1OC
A: inactive

Q: Again, but for O=S(=O)(c1ccccc1)N1CCCc2ccccc21
A: inactive

Q: Again, but for Cc1cc2cc3cc(C)c(N)cc3[n+](C)c2cc1N
A: active

Q: Again, but for O=S(=O)(NCCNc1nccc(-c2c(-c3cccc(F)c3)nc3occn23)n1)c1cccc2ccccc12
A: inactive

----------
Hi there, I'd appreciate the recorded growth for every entry that follows.
Tested on: DU-145 prostate
MEASUREMENT_PROTOCOL: NCI-60 one-dose screen, 48 h (100 = growth as untreated, 0 = no growth, -100 = all killed)
PROTOCOL_CONDITIONS: 10 µM unless noted
Protocol: Cells are grown in 96 well plates and exposed to the test compound for 48 hours. Compounds are tested at a single concentration, which is 10^-5 M for most compounds. The reported endpoint is percent growth (GI% or GIPRCNT), where numbers from 0 - 100% represent growth inhibition, and numbers from -100% - 0 represent cell death. For example, a value of 40 represents 60% growth inhibition. A value of 0 means no net growth occurred over the course of the experiment. […]
This is part of a sample that, as a whole, favours compounds with a hit. Of some 83,000 tested, about 20% had one in any assay.
Give the value in % but do not write % after it.

Q: May I ask what growth has been recorded for O=C1Nc2c(ccc(Cl)c2Cl)/C1=C/c1ccccn1 ?
A: 104

Q: Again, but for CCN(CC)S(=O)(=O)c1cccc([N+](=O)[O-])c1
A: 117

Q: Again, but for COc1ccc(C(=O)c2cc(C)c(OC)c(C)c2)c(OC)c1N(C(=O)C(Cl)Cl)C(=O)C(Cl)Cl
A: 1.52

Q: Again, but for CCN(CC)CCSCCCNc1c(C)cnc2cc(Cl)ccc12
A: 88.2

Q: Again, but for COc1ccc(C(O)c2cc3c(N)c(C(=O)Nc4cccc(Br)c4C)sc3nc2C)cc1 (stereo not given)
A: 9.81

----------
Tested on: UACC-257 melanoma
MEASUREMENT_PROTOCOL: NCI-60 one-dose screen, 48 h
PROTOCOL_CONDITIONS: 10 µM unless noted
This is part of a sample that, as a whole, favours compounds with a hit. Of some 83,000 tested, about 20% had one in any assay. Activity calls are given as the source filed them. How the source made its calls: active means growth percent below 10; inactive means the rest.
Could you please pick one outcome from this set? active, inactive

Q: GET /call?item= CCCCCCOc1ccc(C(=N)N(CCCC)CCCC)c2ccccc12 returns the recorded outcome of this test.
A: active

Q: Again, but for CC(C)Cc1ccc(C(C)C(=O)NCc2ccc(Cn3c(=O)sn(-c4ccc(Cl)cc4)c3=O)cc2)cc1 (stereo not given)
A: inactive

Q: Again, but for O=C(/C=C\c1ccc(OCCCCCC[P+](c2ccccc2)(c2ccccc2)c2ccccc2)cc1)c1ccc2c(c1)OCCO2
A: active

Q: Again, but for CCOC(=O)c1c(C)nc2c(c1N)C(=O)C(=O)N2Cc1ccc(C(F)(F)F)cc1
A: inactive

Q: Again, but for O=C1Nc2c(ccc(Cl)c2Cl)/C1=C/c1ccc(O)cc1
A: inactive

----------
Test system: HCT-116 colon
MEASUREMENT_PROTOCOL: NCI-60 one-dose screen, 48 h (100 = growth as untreated, 0 = no growth, -100 = all killed)
PROTOCOL_CONDITIONS: 10 µM unless noted
About 83,000 compounds went through this panel and 20% of them were active in at least one assay; those are over-represented in the sample as a whole.
The label Met is reserved for growth strictly under 20%; Not met covers values equal to or above it.

Q: Criterion: growth strictly below 20%. Is it met by Cc1cc2nc(-c3ccccc3)c(-c3ccccc3)nc2cc1C ?
A: Not met

Q: Again, but for Clc1ccc(N2N=C(c3cccc(Nc4ccncc4)c3)CC2c2ccccc2)cc1 (stereo not drawn)
A: Met

Q: Again, but for CC(=O)c1cc2c(N)c(C(=O)Nc3cncc4ccccc34)sc2nc1C
A: Not met

Q: Again, but for CN1CCN(Cc2ccc(NC(=O)c3cncc(C#Cc4cnccc4C(F)(F)F)c3)cc2C(F)(F)F)CC1
A: Not met

Q: Again, but for CN1CCN(C(=O)[C@]2(C)CC[C@]3(C)CC[C@]4(C)C(=CC(=O)[C@@H]5[C@@]6(C)CCC(=O)NC(C)(C)[C@@H]6CC[C@]54C)[C@@H]3C2)CC1
A: Not met

Q: Again, but for O=C(Nc1ccc2cc3ccc(NC(=O)NC4CCCCC4)cc3nc2c1)NC1CCCCC1
A: Not met

Q: Again, but for COc1ccc(C(O)c2cc3c(N)c(C(=O)Nc4ccc(Cl)cc4)sc3nc2C)cc1 (stereo not drawn)
A: Not met

Q: Again, but for CC(C)NC(=O)N1C(=O)CCC1NNC(=O)c1ccc([N+](=O)[O-])cc1 (stereo not drawn)
A: Not met

Q: Again, but for COc1cnccc1-c1nc2ccc3[nH]ncc3c2c2c1CCCC2
A: Not met

Q: Again, but for COc1ccc(-c2nc(SCC(C)C)nc(N/N=C(/C)c3ccc(OC)c(OC)c3)c2C#N)cc1
A: Not met

Q: Again, but for O=C(Nc1ccc2ncnc(Nc3ccc(Oc4cccc(F)c4)c(Cl)c3)c2c1)c1ccc(CNCCO)cc1
A: Met

Q: Again, but for CCCCCN1C=C/C(=C\C(=O)N(C)c2cccc3ccccc23)c2ccccc21
A: Not met

Q: Again, but for CC1(C)CC[C@]2(C(=O)NCC#CCN3CCOCC3)CC[C@]3(C)C(=CC[C@@H]4[C@@]5(C)Cc6c([nH]c7ccccc67)C(C)(C)[C@@H]5CC[C@]43C)[C@@H]2C1
A: Not met

Q: Again, but for COc1nc(N)nc(-n2c(-c3ccc(C)cc3)nc3ccccc32)c1NCc1ccc(C)cc1
A: Not met

Q: Again, but for COc1ccc(Cn2nc(-c3cc(OC)c(OC)c(OC)c3)c3c2CCc2cnoc2-3)cc1OC
A: Not met

Q: Again, but for COc1cc2nc(-c3ccc(C(F)(F)F)cc3)cc(OCCCN3CCC(O)CC3)c2cc1OC
A: Met

Q: Again, but for OC1(c2ccc(Cl)c(C(F)(F)F)c2)CCN(CCCC(c2ccc(F)cc2)c2ccc(F)cc2)CC1
A: Met

Q: Again, but for O=C1Nc2c(ccc(Cl)c2Cl)/C1=C/c1ccc(O)cc1
A: Not met

Q: Again, but for O=C(O)CCCCCCCCCCCCCCC(=O)O
A: Not met

Q: Again, but for Cc1cc(C(=O)Nc2ncnc3nc[nH]c23)no1
A: Not met

Q: Again, but for COc1cc(CNC(=O)CCCCC[P+](c2ccccc2)(c2ccccc2)c2ccccc2)c(OC)c2c1OCO2
A: Not met

Q: Again, but for COc1c(Cl)cc(Cl)c2ccc(C=C3C(=O)N(C)C(=O)N(C)C3=O)nc12
A: Met

Q: Again, but for Clc1nc(Cl)c2ncn(CC3(Cn4cnc5c(Cl)nc(Cl)nc54)COC3)c2n1
A: Met

Q: Again, but for COc1ccc(C2CC(c3cccc(Nc4ccncc4)c3)=NN2c2ccccc2)cc1 (stereo not drawn)
A: Met

Q: Again, but for CCCC1C(C(=O)OCC)=C(N)Oc2cc(O)ccc21 (stereo not drawn)
A: Not met

Q: Again, but for COc1ccc(C(=O)/C=C/c2ccc(OCc3ccccc3)c(OC)c2)cc1OC
A: Met

Q: Again, but for Cn1c(COC(=O)NCCn2ccnc2)nc2c(N3CCOCC3)nc(-c3ccccc3)nc21
A: Met

Q: Again, but for Cc1[nH]c(C(=O)Nc2ccccc2OCc2cccc(C(=O)NCCN)c2)c(Cl)c1Cl
A: Met

Q: Again, but for Nc1c(Cl)cc([N+](=O)[O-])cc1Br
A: Not met

Q: Again, but for O=C(N/N=C/c1cccnc1)c1ccccc1Nc1cccc(C(F)(F)F)c1
A: Not met

Q: Again, but for COc1cccc2c1C(=O)c1c(O)c3c(c(O)c1C2=O)C[C@@](O)(C(=O)CO)C[C@@H]3O[C@H]1C[C@H](N)[C@@H](O)[C@H](C)O1
A: Met

Q: Again, but for Cc1ccccc1-c1cc(Cc2ccc(F)cc2)c(=O)[nH]n1
A: Not met

Q: Again, but for CN1C(=O)N(C)C2NC(N/N=C/c3ccccc3)=NC21 (stereo not drawn)
A: Not met

Q: Again, but for CC1(c2ccccc2)NC(=O)N(CC(=O)Nc2cccc(I)c2)C1=O (stereo not drawn)
A: Not met

Q: Again, but for CCCCCCCCN1C(=O)/C(=c2\sc3n(c2=O)C2C(NN=3)N(CC)C(=O)N2CC)c2ccccc21 (stereo not drawn)
A: Not met

Q: Again, but for COc1c(Cl)cc(Cl)c2ccc(C=C3C(=O)NC(=S)NC3=O)nc12
A: Met

Q: Again, but for CCNC(=O)c1[nH]cc(-c2ccc(OC)cc2)c1-c1cc(OC)c(OC)c(OC)c1
A: Met

Q: Again, but for CC(Oc1ccc(C(=O)NS(=O)(=O)C(C)(C)C)cc1C(F)(F)F)c1ccc(Oc2ccccc2)cn1 (stereo not drawn)
A: Not met
